What pIC50 was measured for each of the following?
# measured.target: sec7-domain of cytohesin-2 (Homo sapiens)
# Sequence (Q99418 72-201 limits assumed): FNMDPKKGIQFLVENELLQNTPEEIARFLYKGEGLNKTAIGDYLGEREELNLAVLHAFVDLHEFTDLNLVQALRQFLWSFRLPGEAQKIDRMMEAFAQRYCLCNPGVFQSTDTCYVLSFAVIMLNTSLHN
Answers are plain numbers, as −log10 of the molar value.

Illustrative cases are given below, each with its answer.
In [3]: df
Out[3]:
                                   compound                           measured_target  value_kind  assay_result
0            O=C(O)[C@H]1CSCN1C(=O)Cc1cccs1  sec7-domain of cytohesin-2 (Homo sapiens)       pIC50          4.70
1  CN(c1cc(Cl)nc(SCc2ccc(C(=O)NCc3ccco3)cc2)n1)C1CCCCC1  sec7-domain of cytohesin-2 (Homo sapiens)       pIC50          4.71
2  COc1nc(-c2ccc3c(c2)OCO3)n(-c2ccc(NC(=O)CSc3ccccc3)cc2)n1  sec7-domain of cytohesin-2 (Homo sapiens)       pIC50          5.08
3  CCOc1nc(-c2ccccc2F)n(-c2ccc(NC(=O)CSc3ccccc3)cc2)n1  sec7-domain of cytohesin-2 (Homo sapiens)       pIC50          4.91
4  O=C(CN(CC1CCCO1)C(=O)Cc1cccs1)N(Cc1ccc(F)cc1)Cc1ccco1 (stereo not shown)  sec7-domain of cytohesin-2 (Homo sapiens)       pIC50          4.71

Okay, next one:
// query Item under review: CCOc1nc(-c2cccc(F)c2)n(-c2ccc(NC(=O)Cc3cccs3)cc2)n1 . Reported pIC50?
// result 4.79
